# Tested on: Candida parapsilosis ATCC 22019
# assay_notes: Anti-fungal broth microdilution (MIC), fungus G
# Assay type: cell-based
# study_conditions: yeast protocol, more than 80% inhibition, 48 h
property_measured: MIC, fungus G (µg/mL)
Give your result in µg/mL as a bare value.

[in] Kindly indicate its recorded MIC, fungus G. Item: CCCCCCCC/C=C\CCCCCCCCCCCCOP(=O)([O-])OCC[N+](C)(C)C [ErPC, (13Z)-docosenylphosphocholine, reference compound]
[out] 64

[in] Kindly indicate its recorded MIC, fungus G. Item: CCCCCCCCCCCCCCCCCCOP(=O)([O-])OCC[As+](C)(C)C [Compound 22]
[out] 1

[in] Kindly indicate its recorded MIC, fungus G. Item: CCCCCCCCCCCCCCCCOP(=O)([O-])OCC[N+]12CCC(CC1)CC2 [Compound 3]
[out] 2

[in] Kindly indicate its recorded MIC, fungus G. Item: CCCCCCCCCCCCCCCCOP(=O)([O-])OCC[N+]1(C)CCCCC1 [Compound 2]
[out] 2

[in] Kindly indicate its recorded MIC, fungus G. Item: CCCCCCCCCCCCCCCCOP(=O)([O-])OC1CC[N+](C)(Cc2ccccc2)CC1 (centres unmarked) [Compound 1]
[out] 3

###

# System: PC3, RKOp21 and SKOV-3 cell lines
# assay_notes: XTT cytotoxicity assay, mean over all three cell lines
# Assay type: cell-based, human
# study_conditions: mean value over all three cell lines
// Mean % INH lookup, one value per entry
Give your result in % as a bare value.

[in] Kindly indicate its recorded Mean % INH. Item: CCCCCCCCCCCCCCCCOP(=O)([O-])OCC[N+]1(C)C=CC(C(=O)OCC)CC1 (stereo not shown) [Compound 266]
[out] 13.6

[in] Kindly indicate its recorded Mean % INH. Item: CCCCCCCCCCCCCCCCCCOP(=O)([O-])OC1CC[N+](C)(C)CC1 [perifosine, reference compound]
[out] 78.0

[in] Kindly indicate its recorded Mean % INH. Item: CCCCCCCCCCCCCCCCOP(=O)([O-])OCC[N+]1(C)CCCC1 [Compound 90]
[out] 54.0

[in] Kindly indicate its recorded Mean % INH. Item: CCCCCCCCCCOCCOCCOP(=O)([O-])OCC[N+]1(C)CCCCC1 [Compound 20]
[out] −1.7

###

# Tested on: RKOp21 (human colon adenocarcinoma) cells
# assay_notes: XTT cytotoxicity assay, RKOp21 cells
# Assay type: cell-based
# study_conditions: 31.6 μM, second set of experiments
// RKOp21 % INH [31.6 μM] lookup, one value per entry
Give your result in % as a bare value.

The cases that follow already have their RKOp21 % INH [31.6 μM] on record.
[in] Check RKOp21 (human colon adenocarcinoma) cells data and give RKOp21 % INH [31.6 μM] for CCCCCCCCCCCCCCCCOP(=O)([O-])OCCCC[N+](C)(C)C [Compound 314] .
[out] 10.6

[in] Check RKOp21 (human colon adenocarcinoma) cells data and give RKOp21 % INH [31.6 μM] for CCCCCCCCC=CCCCCCCCCOP(=O)(O)OCCN1CCCCC1 [Compound 19] .
[out] 53.4

[in] Check RKOp21 (human colon adenocarcinoma) cells data and give RKOp21 % INH [31.6 μM] for CCCCCCCCCCCCCCCCOP(=O)([O-])OCC[N+]1(C)CCCCC1 [Compound 2] .
[out] 38.8

Please look at the following molecule next.
[in] Check RKOp21 (human colon adenocarcinoma) cells data and give RKOp21 % INH [31.6 μM] for CCCCCCCCCCOCCOCCOP(=O)([O-])OCC[N+]1(C)CCCCC1 [Compound 20] .
[out] −12.4

###

# Test system: Plasmodium faiciparum (strain 3D7)
# assay_notes: In vitro drug activity assay, protozoon D
# Type: cell-based, Plasmodium falciparum
# study_conditions: strain 3D7, 3[H]-hypoxanthine method
# Description: In vitro activity of selected compounds of the invention against different protozoa was assessed as follows. Plasmodium falciparum strain K1 and strain 3D7 parasites were cultured according to Trager W and Jensen J B (Science 1976, 193: 673-675). […] ED50 values were calculated with Msxlfit (IDBS). […]
property_measured: ED50 (μg/mL), protozoon D

The cases that follow already have their ED50 (μg/mL), protozoon D on record.
[in] Kindly indicate its recorded ED50 (μg/mL), protozoon D. Item: CCCCCCCCCCCCCCCCOP(=O)([O-])OC1CC[N+](C)(CCc2ccccc2)CC1 (centres unmarked)
[out] 15.32 µg/mL

[in] Kindly indicate its recorded ED50 (μg/mL), protozoon D. Item: CCCCCCCCCCCCCCCCOP(=O)([O-])OC1CC[N+](C)(Cc2ccccc2)CC1 (centres unmarked)
[out] 9.97 µg/mL

[in] Kindly indicate its recorded ED50 (μg/mL), protozoon D. Item: CCCCCCCCCCCCCCCCOP(=O)([O-])OCC[N+]1(C)CCCCC1
[out] 2.21 µg/mL

[in] Kindly indicate its recorded ED50 (μg/mL), protozoon D. Item: CCCCCCCCCCCCCCCCCCOP(=O)([O-])OC1CC[N+](CC)(CC)CC1
[out] 16.31 µg/mL

Please look at the following compound next.
[in] Kindly indicate its recorded ED50 (μg/mL), protozoon D. Item: CCCCCCCCCCCCCCCCOP(=O)([O-])OCC[N+]12CCC(CC1)CC2
[out] 2.25 µg/mL

###

// MIC, fungus A lookup, one value per entry
# Tested on: Aspergillus fumigatus ATCC 204305
# assay_notes: Anti-fungal broth microdilution (MIC), fungus A
# Format: cell-based
# study_conditions: filamentous protocol, more than 50% growth inhibition, 48 to 72 h
Give your result in µg/mL as a bare value.

The cases that follow already have their MIC, fungus A on record.
[in] Kindly indicate its recorded MIC, fungus A. Item: CCCCCCCCCCCCCCCCOP(=O)([O-])OCC[N+]12CCC(CC1)CC2
[out] 3

[in] Kindly indicate its recorded MIC, fungus A. Item: CCCCCCCCCCCCCCCCCCOP(=O)([O-])OCC[As+](C)(C)C
[out] 3

[in] Kindly indicate its recorded MIC, fungus A. Item: CCCCCCCCCCCCCCCCOP(=O)([O-])OCC[N+]1(C)CCCCC1
[out] 2

Continuing:
[in] Kindly indicate its recorded MIC, fungus A. Item: CCCCCCCCCCCCCCCCOP(=O)([O-])OC1CC[N+](C)(Cc2ccccc2)CC1 (centres unmarked)
[out] 2

###

# Test system: KB/HeLa (human cervix carcinoma) cells
# assay_notes: XTT cytotoxicity assay, KB/HeLa cells
# Type: cell-based
# study_conditions: XTT, 48 h exposure; read-out: KB/HELA [IC50 (μM)]
property_measured: IC50

[in] Kindly indicate its recorded IC50. Item: CCCCCCCC/C=C\CCCCCCCCCCCCOP(=O)([O-])OCC[As+](CC)(CC)CC
[out] > 100 µM

Continuing:
[in] Kindly indicate its recorded IC50. Item: CCCCCCCCC=CCCCCCCCCOP(=O)(O)OCCN1CCCCC1
[out] > 100 µM

[in] Kindly indicate its recorded IC50. Item: CCCCCCCCCCOCCOCCOP(=O)([O-])OCC[N+]1(C)CCCCC1
[out] > 100 µM

###

# Test system: Candida albicans TS3
# assay_notes: Anti-fungal broth microdilution (MIC), fungus F
# Type: cell-based
# study_conditions: yeast protocol, more than 80% inhibition, 48 h
// MIC, fungus F lookup, one value per entry
Reply with the number and its unit after it.

[in] Kindly indicate its recorded MIC, fungus F. Item: CCCCCCCCCCCCCCCCOP(=O)([O-])OCC[N+]12CCC(CC1)CC2
[out] 2 µg/mL

[in] Kindly indicate its recorded MIC, fungus F. Item: CCCCCCCC/C=C\CCCCCCCCCCCCOP(=O)([O-])OCC[N+](C)(C)C [ErPC, (13Z)-docosenylphosphocholine, reference compound]
[out] 64 µg/mL

Continuing:
[in] Kindly indicate its recorded MIC, fungus F. Item: CCCCCCCCCCCCCCCCOP(=O)([O-])OC1CC[N+](C)(Cc2ccccc2)CC1 (centres unmarked)
[out] 1.5 µg/mL

[in] Kindly indicate its recorded MIC, fungus F. Item: CCCCCCCCCCCCCCCCOP(=O)([O-])OCC[N+]1(C)CCCCC1
[out] 1.5 µg/mL

[in] Kindly indicate its recorded MIC, fungus F. Item: CCCCCCCCCCCCCCCCCCOP(=O)([O-])OCC[As+](C)(C)C
[out] 1 µg/mL

###

# Test system: PC3, RKOp21 and SKOV-3 cell lines
# assay_notes: XTT cytotoxicity assay, mean over all three cell lines
# Assay type: cell-based, human
# study_conditions: mean value over all three cell lines
Mark Y only when Mean % INH stays strictly below 30%. Values equal to the cut-off are N.

Use these answered entries as a reference point.
[in] Say whether its Mean % INH is strictly beneath 30%. Entry: CCCCCCCCCCCCCCCCOP(=O)([O-])OCC[N+]1(C)CCCC(C(=O)OCC)C1 (stereo not shown)
[out] N

[in] Say whether its Mean % INH is strictly beneath 30%. Entry: CCCCCCCCCCCCCCCCOP(=O)([O-])OCC[N+]1(C)CCCCC1
[out] N

[in] Say whether its Mean % INH is strictly beneath 30%. Entry: CCCCCCCCCCCCCCCCOP(=O)([O-])OCCCC[N+](C)(C)C
[out] N

Continuing:
[in] Say whether its Mean % INH is strictly beneath 30%. Entry: CCCCCCCCC#CCCCCCCCCOP(=O)([O-])OCC[N+](C)(C)C
[out] Y

[in] Say whether its Mean % INH is strictly beneath 30%. Entry: CCCCCCCCCCCCCCCCOP(=O)([O-])OCC[N+](C)(C)C [miltefosine, hexadecylphosphocholine, reference compound]
[out] N

[in] Say whether its Mean % INH is strictly beneath 30%. Entry: CCCCCCCCC=CCCCCCCCCOP(=O)(O)OCCN1CCCCC1
[out] N
